The following molecules are shown together with reported pKi values.
Biological target: h-GABA-A α5β3γ2 (Homo sapiens, UniProt P18507+P31644)
Construct: expressed in transfected cells; host or cells: Xenopus laevis oocytes, micro-injected with subunit RNA
Assay: [3H]flumazenil competition binding assay on membranes of HEK293 cells expressing GABAA receptors
Settings: Table 1; displacement of [3H]-Flumazenil (0.5 nM), HEK293 cells expressing human receptors, means of two determinations
Entry type: numeric. Quantity: pKi, the -log10 of concentration in molar units.

1. CCn1nnc(-c2ccc(Cl)cc2F)c1Cn1ncc(N2CCN(C(C)C)[C@@H](C)C2)cc1=O ... 8.25
2. Cc1nnn(-c2ccc(Cl)cc2F)c1Cn1ncc(N2CCC(n3ccnc3C)CC2)cc1=O ... 8.25
3. CCn1nnc(-c2ccc(Cl)cc2F)c1Cn1ncc(N2CC3(CC[C@H](F)CO3)C2)cc1=O ... 7.99
4. Cc1ccc(-c2nnn(C)c2Cn2ncc(N3C[C@H](C)O[C@@H](C)C3)cc2=O)cn1 (racemic) ... 8.59
5. Cn1nnc(-c2ccc(Cl)cc2F)c1Cn1ncc(-c2cccc(C#N)n2)cc1=O ... 8.05
6. Cn1nnc(-c2ccc(Cl)cc2F)c1Cn1ncc(N2CC(Oc3cncc(C(F)(F)F)n3)C2)cc1=O ... 8.10

Entry Cc1nnn(-c2ccc(Cl)cc2)c1Cn1ncc(N2C[C@@H](C)O[C@@H](C)C2)cc1=O needs its pKi filled in; supply it.
8.08

Entry Cc1nnn(-c2ccc(Cl)cc2F)c1Cn1ncc(N2CCOCC2)cc1=O needs its pKi filled in; supply it.
7.81

Entry COC[C@@H]1CCCN1c1cnn(Cc2c(-c3ccc(C)nc3)nnn2C)c(=O)c1 needs its pKi filled in; supply it.
7.97

Entry Cn1nnc(-c2ccc(Cl)cc2F)c1Cn1ncc(N2CC(Oc3cnccn3)C2)cc1=O needs its pKi filled in; supply it.
8.11

Entry CCn1nnc(-c2ccc(Cl)cc2F)c1Cn1ncc(N2CC(OCC(F)(F)F)C2)cc1=O needs its pKi filled in; supply it.
7.90

###

Molecular target: h-GABA-A α5β3γ2 (Homo sapiens, UniProt P18507+P31644)
Construct: expressed in transfected cells; host or cells: Xenopus laevis oocytes, micro-injected with subunit RNA
Assay: [3H]flumazenil competition binding assay on membranes of HEK293 cells expressing GABAA receptors
Details: Table 1; displacement of [3H]-Flumazenil (0.5 nM), HEK293 cells expressing human receptors, means of two determinations
pKi: −log10 of the molar value.
Label rule, in plain words: pKi of 8 and up is label 1, under 8 is label 0.

Use these answered entries as a reference point.
1. Cc1ccc(-c2nnn(C)c2Cn2ncc(N3CCC(C)(C)C3)cc2=O)cn1 ... label 1
2. Cc1nnn(-c2ccc(Cl)cc2F)c1Cn1ncc(N2CC(OCC(F)(F)F)C2)cc1=O ... label 0
3. C[C@@H]1CN(c2cnn(Cc3c(-c4ccc(Cl)cc4F)nnn3C)c(=O)c2)CCO1 ... label 1

Form field: pKi at least 8? Entry: CCOC1CN(c2cnn(Cc3c(-c4ccc(Cl)cc4)nnn3C)c(=O)c2)C1
label 0

###

Target: h-GABA-A α5β3γ2 (Homo sapiens, UniProt P18507+P31644)
Construct: expressed in transfected cells; host or cells: Xenopus laevis oocytes, micro-injected with subunit RNA
Assay: [3H]flumazenil competition binding assay on membranes of HEK293 cells expressing GABAA receptors
Details: Table 1; displacement of [3H]-Flumazenil (0.5 nM), HEK293 cells expressing human receptors, means of two determinations
Protocol: The affinity of compounds at GABAA receptor subtypes was measured by competition for [3H]flumazenil (85 Ci/mmol; Roche) binding to HEK293 cells expressing rat (stably transfected) or human (transiently transfected) receptors of composition α1β3γ2, α2β3γ2, α3β3γ2 and α5β3γ2. […]
pKi: −log10 of the molar value.
Label rule, in plain words: pKi of 8 and up is true, under 8 is false.

Use these answered entries as a reference point.
1) CN(C)c1cnn(Cc2c(-c3ccc(Cl)cc3F)nnn2C)c(=O)c1 ... true
2) Cn1nnc(-c2ccc(Cl)cc2)c1Cn1ncc(N2CC(OCC(F)(F)F)C2)cc1=O ... false
3) Cc1ccc(-n2nnc(C)c2Cn2ncc(N3C[C@@H](C)O[C@@H](C)C3)cc2=O)cn1 ... false
4) Cc1nnn(-c2ccc(Cl)cc2F)c1Cn1ncc(N(C)C)cc1=O ... false
5) C[C@@H]1CN(c2cnn(Cc3c(-c4ccc(Cl)cc4)nnn3C)c(=O)c2)C[C@H](C)O1 ... true

Form field: pKi at least 8? Entry: Cc1ccc(-n2nnc(C)c2Cn2ncc(N3CCC[C@H]3C)cc2=O)cn1
true

Form field: pKi at least 8? Entry: Cn1nnc(-c2ncc(C(F)(F)F)cn2)c1Cn1ncc(N2CC(OCC(F)F)C2)cc1=O
false

Form field: pKi at least 8? Entry: CC(C)O[C@@H]1CCN(c2cnn(Cc3c(-c4ccc(Cl)cc4F)nnn3C)c(=O)c2)C1
false
